tested_on: Jak2 (UniProt O60674)
Sequence (O60674 whole entry, looked up): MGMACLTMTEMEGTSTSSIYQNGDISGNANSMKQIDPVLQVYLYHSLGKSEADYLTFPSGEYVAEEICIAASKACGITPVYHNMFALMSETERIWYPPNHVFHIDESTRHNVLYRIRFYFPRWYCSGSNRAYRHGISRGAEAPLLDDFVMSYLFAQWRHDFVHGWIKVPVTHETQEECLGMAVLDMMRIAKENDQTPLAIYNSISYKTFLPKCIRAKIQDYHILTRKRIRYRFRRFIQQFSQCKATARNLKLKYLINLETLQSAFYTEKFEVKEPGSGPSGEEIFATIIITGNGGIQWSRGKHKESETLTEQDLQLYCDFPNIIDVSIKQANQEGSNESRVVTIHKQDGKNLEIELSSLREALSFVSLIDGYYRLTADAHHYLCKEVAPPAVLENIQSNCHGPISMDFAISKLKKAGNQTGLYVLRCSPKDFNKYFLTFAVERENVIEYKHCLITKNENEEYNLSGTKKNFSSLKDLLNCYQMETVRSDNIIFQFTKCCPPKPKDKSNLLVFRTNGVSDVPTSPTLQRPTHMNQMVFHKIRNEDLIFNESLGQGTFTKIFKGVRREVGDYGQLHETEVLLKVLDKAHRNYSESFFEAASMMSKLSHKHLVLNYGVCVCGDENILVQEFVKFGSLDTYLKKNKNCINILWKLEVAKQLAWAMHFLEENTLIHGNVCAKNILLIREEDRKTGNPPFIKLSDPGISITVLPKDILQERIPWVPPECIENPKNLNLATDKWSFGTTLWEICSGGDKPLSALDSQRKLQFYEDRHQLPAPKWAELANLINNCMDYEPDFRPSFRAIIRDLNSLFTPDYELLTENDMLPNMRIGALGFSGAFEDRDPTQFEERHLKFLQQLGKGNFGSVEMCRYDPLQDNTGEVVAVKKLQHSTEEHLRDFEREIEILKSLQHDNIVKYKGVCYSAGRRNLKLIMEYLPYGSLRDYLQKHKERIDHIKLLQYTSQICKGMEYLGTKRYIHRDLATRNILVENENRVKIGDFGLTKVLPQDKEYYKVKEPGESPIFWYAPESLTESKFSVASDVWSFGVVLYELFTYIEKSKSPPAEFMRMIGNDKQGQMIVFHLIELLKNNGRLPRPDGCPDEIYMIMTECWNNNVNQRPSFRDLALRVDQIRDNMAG
measurement_notes: phosphorylation enrichment, bacterial display (enrichment ratio); higher = better substrate or ligand; peptides without Tyr show the background;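 further: 11-residue human phosphosite peptides and single-mutation variants displayed on the E. coli surface, counted by deep sequencing, each peptide's frequency after selection divided by its frequency in the unselected input library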;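 further: frequency after pTyr selection over input frequency; kinase dosed for 20-30% of maximal phosphorylation in three min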
// reported phosphorylation enrichment for each item listed

Below: 4 sequences and their reported phosphorylation enrichment.
monomer_sequence	measured_value
ALKKPYGVLYK [RPF2_Y59]	0.72
CEDGNYSPEIS [PTDSS1_Y424_T423N]	0.975
SYTDPYAQPSL [KMT2D_Y2378_P2382S]	0.718
HQEPVYSVAFS [TBL1X_Y509]	0.688

Note: attention shifts to another entry.
Missing value: phosphorylation enrichment, Jak2 (UniProt O60674), entry ADKSAYLMGPN [MYH7_Y386_L390P] . Fill in?
0.7
